Reference for the values: PubChem BioAssay

# EXPERIMENTAL PROTOCOL: inhibition of 3D7 malaria parasite growth – strain 3D7 (AID 2306);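 further: 0% = DMSO wells and 100% = chloroquine plus artemisinin control wells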
# TEST PARAMETERS: P. falciparum 3D7 erythrocytic growth, LDH absorbance, 72 h; at 2 µM; hits give high values
Catalogue of growth inhibition readings, one per entry.
REPORTED PROPERTY: growth inhibition (%)

{"columns": ["MOLECULE", "REPORTED RESULT"],
 "data": [
  ["CCc1c[nH]c2c(N3CCCC3=O)cc(C(=O)N[C@@H](Cc3ccccc3)[C@H](O)CNC(C)(C)c3cccc(C(F)(F)F)c3)cc12", 98],
  ["CC(C)c1ccc(NC(=O)c2ccc(C(=O)NC3CCN(CC4CCCCC4)CC3)cc2)cc1", 98],
  ["O=C(C=Cc1ccccc1)Nc1ccc(C#CC=Cc2ccc(NC(=O)C=Cc3ccccc3)cc2)cc1", 100],
  ["CC(C)c1ccc(CN2CCC(CNC(=O)c3cc(-c4ccccc4F)cs3)C2)cc1 (stereo not given)", 101],
  ["COc1ccc(-c2csc3ncnc(Cl)c23)cc1OC", 93],
  ["Cn1cncc1-c1ccc2ncnc(Nc3ccc(OCc4ccccc4)cc3)c2c1", 101],
  ["O=C(Nc1ccc(OC2CCN(Cc3ccc(F)cc3)C2)cc1)c1ccco1 (stereo not given)", 88],
  ["Cc1cccc(C(=O)N2CCN(Cc3cccc(NC(=O)c4cccs4)c3)CC2)c1", 95],
  ["CCc1nc(N)nc(N)c1-c1cccc(Cl)c1", 94],
  ["CN(C)CCN(Cc1ccc(-c2ccc(CNCCc3ccccc3)cc2)nc1)C(=O)CCC1CCCC1", 96]
]}

====

# EXPERIMENTAL PROTOCOL: antimalarial activity against Dd2 strain (AID 2302);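 further: 0% = DMSO untreated growth and 100% = chloroquine plus artemisinin killed control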
# TEST PARAMETERS: P. falciparum Dd2 in RBCs, LDH growth readout, 72 h; at 2 µM
Calls of active or inactive are those of the source.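 The calls were made as follows: active = growth inhibition above 50% at the single 2 µM test dose, taken to imply half-maximal potency below 2 µM; inactive = the rest.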
Labels: TRUE = active, FALSE = inactive

{"columns": ["MOLECULE", "GROUP LABEL"],
 "data": [
  ["CC(C)c1sc(N2CCN(C)CC2)nc1C(=O)Nc1cccc2c1CCCC2", "TRUE"],
  ["CN(C(=O)NCCc1ccccc1)C1CCN(CCCCCNC(=O)/C=C/c2ccc(Cl)c(Cl)c2)CC1", "FALSE"],
  ["Cc1cc(N[C@@H](CC(C)C)C(=O)NC2CCCC2)nc(NCc2ccccc2C)n1", "FALSE"],
  ["Cc1noc(C)c1-c1ccc(C(=C2CCCCCCC2)c2ccc(O)cc2)cc1", "FALSE"],
  ["CN(C)c1ccc2c(c1)Sc1cc(N(C)C)ccc1N2C(=O)c1cccc(C(=O)O)c1", "TRUE"],
  ["O=C(/C=C/c1ccc(Cl)cc1)NCCCCCN1CCC(C(=O)Nc2ccc(Cl)c(Cl)c2)CC1", "FALSE"],
  ["CCOC(=O)C(Oc1ccc2ccccc2c1)C(=O)OCC", "FALSE"],
  ["COc1ccc2nccc([C@@H](O)CN3CCC(NC[C@H](Cc4ccccc4)NC(=O)OC(C)(C)C)CC3)c2c1", "TRUE"],
  ["COc1ccc(-c2nonc2NC(=O)c2cccc(Cl)c2)cc1OC", "TRUE"],
  ["CC(C)Oc1ccccc1-c1csc(C(=O)NCC2CCN(Cc3ccc(C(C)(C)C)cc3)C2)c1 (stereo not given)", "FALSE"]
]}
